test system: HL-60; experiment: Anticancer activity against human HL60 cells after 48 hrs by MTT assay; assay type: functional, cell-based; settings: Homo sapiens, HL-60, 48 h; read-out: IC50
Measured log10 of IC50 by item
Answers are given as log10 of IC50 in µg/mL.

COMPOUND	TARGET_OF_ASSAY	log10 of IC50
COc1cc([C@@H]2c3cc4c(cc3[C@@H](O[C@@H]3O[C@@H]5CO[C@@H](C)O[C@H]5[C@H](O)[C@H]3O)[C@H]3COC(=O)[C@H]23)OCO4)cc(OC)c1O [ETOPOSIDE]	HL-60	-0.33
O=C(/C=C/c1ccc2ncccc2c1)c1ccc(F)cc1	HL-60	1.32
O=C(/C=C/c1ccc2c(ccc[n+]2[O-])c1)c1ccccc1	HL-60	0.69
Cc1ccc(C(=O)/C=C/c2ccc3c(ccc[n+]3[O-])c2)cc1	HL-60	1.31
COc1ccc(C(=O)/C=C/c2ccc3c(ccc[n+]3[O-])c2)cc1	HL-60	1.17
COc1ccc(C(=O)/C=C/c2ccc3ncccc3c2)cc1	HL-60	1.10
C[n+]1cccc2cc(/C=C/C(=O)c3ccc(Cl)cc3)ccc21.[I-]	HL-60	1.00
O=C(/C=C/c1ccc2c(ccc[n+]2[O-])c1)c1ccc(Br)cc1	HL-60	0.41
COc1ccc(C(=O)/C=C/c2ccc3c(ccc[n+]3C)c2)cc1.[I-]	HL-60	1.40
Cc1ccc(C(=O)/C=C/c2ccc3ncccc3c2)cc1	HL-60	0.92

Fill in: log10 of IC50 of O=C(/C=C/c1ccc2ncccc2c1)c1ccc(Cl)cc1 is ___
0.94

Fill in: log10 of IC50 of O=C(/C=C/c1ccc2c(ccc[n+]2[O-])c1)c1ccc(Cl)cc1 is ___
1.53
